# Test system: SNB-75 CNS
# PROTOCOL DETAILS: NCI tumour cell line growth inhibition, 48 h
# TGI >= 40 µM gives Y, anything below gives N

query: Item `Cc1[nH]n(-c2nc(O)c(C)c(=O)[nH]2)c(=O)c1CCO` with TGI of 40 µM or above?
result: Y

query: Decide: is the reported value of TGI for `COc1cc(-c2cc(-c3nc4ccccc4[nH]3)[nH]n2)cc(OC)c1OC` equal to or greater than 40 µM?
result: N

query: Hi, just wondering whether `c1ccc2[nH]c(-c3ccc(OCCCCCOc4ccc(-c5nc6ccccc6[nH]5)cc4)cc3)nc2c1` shows TGI of 40 µM or higher.
result: N

query: Is it the case that `CC(=O)OC[C@@H]1[C@H]2CC(=O)O[C@H]2C[C@H]1OC(C)=O` has TGI reaching or exceeding 40 µM?
result: Y

query: Would you say `COc1ccc(/C=N/n2c(C)n[nH]c2=O)cc1` shows TGI at minimum 40 µM?
result: Y

query: Exam item: decide whether the reported TGI for `CC(=O)/C=C/c1c[nH]c(=O)[nH]c1=O` is at least 40 µM.
result: Y

query: Confirm if TGI reported for the compound `Cc1cc(S(=O)(=O)NC#N)c(S/C(=N\Nc2ccc([N+](=O)[O-])cc2)c2ccccc2)cc1Cl` is 40 µM or above.
result: Y

query: Given the entry `CCc1oc2ccccc2c1C(=O)c1cc(Br)c(O)c(Br)c1` , answer whether its TGI meets or surpasses 40 µM.
result: Y

* * *

Please provide measured TGI for the entries that follow.
# Tested on: HOP-18 NSCLC
# PROTOCOL DETAILS: NCI tumour cell line growth inhibition, 48 h

Given the molecule `O=Cc1[nH]c2ccccc2c1Br` and test system HOP-18 NSCLC, the measured TGI is 83.4 µM

Bench note, HOP-18 NSCLC: entry `C=CCN=C1N=C(CC(=O)OCC)CS1` , its TGI = > 100 µM

Hey, HOP-18 NSCLC data for `CCOC(=O)NC(=O)c1cn(CCCOC(=O)CCCCCCCCC(=O)OCCCn2cc(C(=O)NC(=O)OCC)c(=O)[nH]c2=O)c(=O)[nH]c1=O` : TGI came out at 56.4 µM

Here `COc1ccc2nc(NC(=O)C(=O)CC(=O)c3ccc(Cl)cc3)sc2c1` was tested on HOP-18 NSCLC, and its TGI came to > 100 µM

HOP-18 NSCLC assay, molecule `CC[O-].CC[O-].O=Nc1ccc2cc([O-])ccc2c1.O=Nc1ccc2cc([O-])ccc2c1.[Ti+4]` , recorded TGI = 2.82 µM

Tested system HOP-18 NSCLC; TGI recorded for `CC(C)(C)C(=O)C(c1ccc(-c2cscn2)cc1)c1ccc(-c2cscn2)cc1` was > 100 µM

Tested on HOP-18 NSCLC, the item `CC(=S)NNC(=O)c1ccncc1` showed TGI equal to > 100 µM

Reported TGI (HOP-18 NSCLC) for entry Cc1cc2c(c(C#N)c1C)NC(=O)C(CC(=O)O)C2=O (stereo not drawn) is > 100 µM

The reported HOP-18 NSCLC TGI of `CCCN(CCC)C(=O)Cc1c2n(c3ccccc13)Cc1ccccc1-2` is > 100 µM

TGI value, target or system HOP-18 NSCLC, for `CCN(CC)C(=S)N/N=C(\C)c1ccccc1O` : 86.5 µM

The reported TGI value, HOP-18 NSCLC, for `COc1ccc(/C=C2\CNC/C(=C\c3ccc(OC)cc3)C2=O)cc1` reads > 100 µM

Item `CNC=O` ; assay system HOP-18 NSCLC; TGI reported as > 10000 µM

// returns TGI for CC1OC(OC2C(Oc3cc(O)c4c(=O)cc(-c5ccc(O)cc5)oc4c3)OC(CO)C(O)C2O)C(O)C(O)C1O (stereo not drawn) with HOP-18 NSCLC; value = > 100 µM

* * *

# Test system: A498 renal
# PROTOCOL DETAILS: NCI tumour cell line growth inhibition, 48 h; in the data active means GI50 below about 0.43 µM; inactive means the rest
Result category, one only: active, inactive

query: Short answer needed: outcome of this test for `Cc1ccc(NC2=C(Sc3ccc(Cl)cc3)C(=O)N(Cc3ccccc3)C2=O)cc1Cl` ?
result: inactive

query: Would you mind telling me which call this test gave N#CSCC1CC(O)(c2ccccc2)C(c2ccccc2)C(c2ccc(F)cc2)O1 (stereo unspecified) ?
result: inactive

query: Would you mind telling me which call this test gave `CCOc1cc2ncc(C#N)c(Nc3ccc(F)c(Cl)c3)c2cc1NC(=O)/C=C/CN(C)C` ?
result: active

query: What did this assay record as the result for `C#CC[C@H](c1nc2cc(Cl)ccc2c(=O)n1Nc1ccccc1)N(CCCN)C(=O)c1cccc(Cl)c1F` ?
result: inactive

query: Please state the recorded outcome for this compound: `CN(C)CC#Cc1cccc(C(=O)c2cnn(-c3ccc(F)cc3)c2N)c1`
result: inactive

query: Status in this test for `CC1(C)N=C(N)N=C(N)N1c1cccc(CCCCc2ccc(S(=O)(=O)F)cc2Cl)c1` ?
result: inactive

query: # outcome recorded in this test, key = `COc1cc(-c2cn(-c3ccc(Cl)cc3)c(=O)[nH]2)cc(OC)c1OC`
result: inactive

query: Dear colleague, could you share the recorded outcome for `CCc1ccc(CCC(=O)Nc2ncc(Cc3ccccc3)s2)o1` when you have a moment?
result: inactive

query: Per the assay record, what outcome was assigned to `COc1cccc(/C=C/C(=O)c2cc3c(N)c(C(=O)Nc4cccc(Cl)c4C)sc3nc2C)c1` ?
result: inactive

query: What outcome does the record of this test show for `COc1ccc(C(=O)c2cc(OC)c(OC)c(OC)c2)cc1O` ?
result: inactive

query: Given `COc1ccc(/C=C(\C#N)c2cc(OC)c3c(c2)OCO3)cc1` , state the outcome it received in this test.
result: active

query: GET /call?item= `Cc1ccc(C(=O)N/N=C/c2cccc(Oc3ccccc3)c2)cn1` returns the recorded outcome of this test.
result: inactive

query: Look up the recorded call for `COc1cc2cnc3c(c2cc1OC)Cc1cc2c(cc1-3)OCO2` in this test.
result: active

query: Tell me the recorded outcome of this test for `CCS(=O)(=O)c1ccc(OC)c(Nc2nccc(N(C)c3ccc4c(C)[nH]nc4c3)n2)c1` .
result: inactive

query: Can you look up the reported call for `Cc1nc(Nc2ccc(F)c(Cl)c2)sc1C(=O)O` for me?
result: inactive

query: Outcome logged for `CCOC(=O)[C@@H](C)C[C@H](Cc1ccccc1)NC(=O)c1csc([C@@H](C[C@H](C(C)C)N(C)C(=O)[C@H](CCC(C)C)NC(=O)[C@H]2CCCCN2C)OC(C)=O)n1` in this assay:
result: active

query: Tell me the recorded outcome of this test for `C=C(CN1CCN(c2ccccc2F)CC1)c1ccc(C(=O)Nc2ccccc2N)cc1` .
result: inactive

query: Recorded test outcome, item `COC[C@H]1OC(=O)c2coc3c2[C@@]1(C)C1=C(C3=O)[C@@H]2CCC(=O)[C@@]2(C)C[C@H]1OC(C)=O`
result: inactive

query: Called result for `O=C(N/N=C/c1cc(Br)cc(Br)c1[O-])c1ccccc1O.O=C(N/N=C/c1cc(Br)cc(Br)c1[O-])c1ccccc1O.[Mn+2]`
result: inactive

query: Returns: the outcome recorded for `Cc1cc2c(C(N)=O)cccc2n1-c1nc2c(c(NCc3ccccc3)n1)CCCN2` in this assay.
result: active

query: // outcome(item) with item = Clc1cc(Cl)cc(N2N=C(c3cccc(Nc4ccncc4)c3)CC2c2ccc(Br)cc2)c1 (stereo unspecified)
result: inactive

* * *

# System: U251 CNS
# PROTOCOL DETAILS: NCI tumour cell line growth inhibition, 48 h
METRIC: TGI

Record O=C1NC2(O)c3ccccc3C(=O)C2(O)N1c1ccccc1 (configuration not stated) , field TGI: > 100 µM

Note to self: TGI recorded for `Fc1ccc(-c2nnc3sc(-c4cccc(Cl)c4)nn23)cc1Cl` was > 100 µM

Reported TGI ( `COc1ccc(CN=C2Nc3ccncc3S(=O)(=O)N2c2ccccc2)cc1` ) = > 100 µM

Query Cc1cc2c(c(C#N)c1C)NC(=O)C(CC(=O)O)C2=O (configuration not stated) yields TGI of > 100 µM

Data point: NC1CCC[C@@H](O)[C@H]1O (some centres not stated) ; TGI = > 100 µM

The compound `Cc1cc(N/N=C/c2nc(-c3ccccc3)oc2C)c2cc(Cl)ccc2n1` showed TGI equal to 3.34 µM

Data point: COC1CC(OS(=O)(=O)c2ccc(C)cc2)C(OS(=O)(=O)c2ccc(C)cc2)C(COS(=O)(=O)c2ccc(C)cc2)O1 (configuration not stated) ; TGI = 11.6 µM

Lookup result for `CCO[C@H]1C[C@@H](c2ccccc2)[C@]2(C)C[C@H](C(=O)OC)ON2O1` ; measured TGI: > 100 µM

Input `CCCCC(=O)[O-].N.N.N.N.N.[Co+3].[O-][Cl+3]([O-])([O-])[O-]` . Output TGI: > 100 µM

TGI for `CCCN(CCC)C(=O)Cc1c2n(c3ccccc13)Cc1ccccc1-2` is > 100 µM

TGI measured on O=S(=O)(NC(c1ccccc1)(c1cc2ccccc2[nH]1)c1cc2ccccc2n1S(=O)(=O)c1ccccc1)c1ccccc1 (configuration not stated) = > 100 µM

The compound identified as `N#Cc1nsnc1-c1nc(-c2nsnc2C#N)nc(-c2nsnc2C#N)n1` registered its TGI at > 100 µM
